# merged literature set: Ki with Human σ1 receptor (Homo sapiens)

For the molecule `O=S(=O)(N[C@H]1CC[C@H](NCc2ccncc2)CC1)c1ccc(N2CCOCC2)nc1` , what Ki is on record?
> 1000 nM

For `Cc1cc(-c2nn(C)c(Cl)c2CN2CCC3(CC2)CCN(CCC(C)(C)C)C3)no1` , what is its reported Ki?
100 to 500 nM

Please report the recorded Ki for `N#Cc1cccc(CN2CCC(NS(=O)(=O)c3ccc(N4CCOCC4)nc3)CC2)c1` .
500 to 1000 nM

// lookup Ki for `CN(Cc1cccc(F)c1)[C@H]1CC[C@H](NS(=O)(=O)c2ccc(N3CCOCC3)nc2)CC1`
> 1000 nM

Look at this molecule and give its reported Ki. `CC(C)(C)CCN1CCC2(CCCN(S(=O)(=O)c3ccc(N4CCOCC4)nc3)C2)CC1`
< 100 nM

For `CNc1ccc(S(=O)(=O)N2CCCC3(CCN(CCC(C)(C)C)CC3)C2)cn1` , what is its reported Ki?
100 to 500 nM

// Ki lookup, key: `Cc1ccc(-c2ccnc(C)n2)c(C2CCN(CC(=O)N3CCOCC3)CC2)n1`
500 to 1000 nM

Which value of Ki has been reported for `Cc1cc(-c2nn(-c3ccccn3)c(Cl)c2C(=O)N2CCC3(CCN(CCC(C)(C)C)CC3)CC2)no1` in the records?
500 to 1000 nM

====

Compiled Ki measurements on Human σ1 receptor (Homo sapiens) taken from the literature.

# annotated cases, reported Ki shown
Look up Ki: `Cc1cc(-c2cnn3cc(CN4CCC5(CC4)COC5)cnc23)ccn1`
< 100 nM

Would you mind telling me what Ki value was observed for `N#Cc1ccc(CN2CCC(NS(=O)(=O)c3ccc(N4CCOCC4)nc3)CC2)cc1` ?
< 100 nM

Item under review: CC(C)CCNC1CCCCN(Cc2c(-c3cccnc3)nn(C)c2Cl)C1 (stereo not drawn) . Reported Ki?
500 to 1000 nM

Ki lookup needed for `CC(C)(C)CCN1CCC2(CC1)CCN(S(=O)(=O)c1ccc(N3CCCC3=O)nc1)CC2` , thanks.
100 to 500 nM

Continuing:
Name the reported Ki value associated with the compound `c1cc(-c2cnn3cc(CN4CCCC4)cnc23)ccn1`
100 to 500 nM

May I ask what Ki has been recorded for `FC(F)(F)c1cc(-c2cnn3cc(CN4CCC5(CC4)COC5)ccc23)ccn1` ?
< 100 nM

For CC(C)CCNC1CCCCN(Cc2c(-c3ccon3)nn(C)c2Cl)C1 (stereo not drawn) , what is its reported Ki?
500 to 1000 nM

Entry `Cc1cc(-c2nn(C)c(Cl)c2C(=O)N2CCC3(CCN(CC(=O)N4CCCCC4)CC3)CC2)no1` has what Ki?
> 1000 nM

Entry under review: Cc1cc(-c2nn(C)c(Cl)c2C(=O)N2CCCCC(NCc3ccccc3)C2)no1 (stereo not drawn) . Reported Ki?
> 1000 nM

====

Record set: pKi | Human σ1 receptor (Homo sapiens) | literature, multiple sources.
pKi: −log10 of the molar value.

Give Human σ1 receptor (Homo sapiens) pKi for Cc1cc(-c2nn(C)c(Cl)c2CN2CCCCC(N(C)CC3CCOCC3)C2)no1 (centres unmarked)
6.30 to 7.00

Form: Entry = Cc1cc(-c2nn(C)c(Cl)c2CN2CCCC(NCCC(C)C)CC2=O)no1 (centres unmarked) | System = Human σ1 receptor (Homo sapiens) | pKi = ____
< 6.00

Under Human σ1 receptor (Homo sapiens): pKi value of `COCC1CCN(Cc2cnc3c(-c4ccnc(C(F)(F)F)c4)cnn3c2)CC1` ?
> 7.00

Value wanted: pKi (Human σ1 receptor (Homo sapiens)) of entry `Cc1cc(-c2nn(C)c(Cl)c2CN2CCC[C@@H](NCCC(C)C)C2)no1`
6.00 to 6.30

For the record `Cc1cc(-c2nn(C)c(Cl)c2CN2CCC3(CCN(Cc4ccccc4)CC3)CC2)no1` , what value of pKi is listed for Human σ1 receptor (Homo sapiens)?
> 7.00

Next:
Test system Human σ1 receptor (Homo sapiens); read-out pKi; what value for `CC(C)(C)CCN1CCCC2(CCN(S(=O)(=O)c3ccc(N4CCC5(CCCO5)CC4)nc3)CC2)C1` ?
> 7.00

Give the reported pKi for `CN(C)c1ccc(S(=O)(=O)N[C@H]2CC[C@H](N(C)Cc3ccccc3)CC2)cn1` (system: Human σ1 receptor (Homo sapiens)).
6.00 to 6.30

Param readout = pKi; param system = Human σ1 receptor (Homo sapiens); param query = `Cc1cc(-c2nn(C)c(Cl)c2CN2CCC3(C2)CN(Cc2ccccc2)C3)no1` ; response: value
> 7.00

====

Across several publications, the following pKi results were reported for Human σ1 receptor (Homo sapiens, UniProt Q99720).
pKi: −log10 of the molar value.

What does the record list as pKi for Cc1cc(-c2nn(C)c(Cl)c2CN2CCCCC(NCCC(C)C)C2=O)no1 (centres unmarked) ?
6.30 to 7.00

Record request: pKi value, item `Cc1cc(-c2nn(C)c(Cl)c2CN2C[C@H](CNCCC(C)(C)C)[C@@H](C)C2)no1`
6.30 to 7.00

Continuing:
Which pKi value is on record for `CN(Cc1ccccc1F)[C@H]1CC[C@H](NS(=O)(=O)c2ccc(N3CCC4(CCCO4)CC3)nc2)CC1` ?
< 6.00

Form field: reported pKi of `CC(C)(C)CCN1CCC2(CC1)CCN(S(=O)(=O)c1ccc(N3CCS(=O)(=O)CC3)nc1)CC2`
6.30 to 7.00

What does the data say about its pKi? Entry: CCc1cc(-c2nn(C)c(Cl)c2CN2CCCCC(NCCC(C)(C)C)C2)no1 (centres unmarked)
6.30 to 7.00

Could you tell me which pKi is on file for `CC(C)(C)CCN1CCC2(CC1)CCN(S(=O)(=O)c1ccc(N3CCOC3=O)nc1)C2` ?
> 7.00

Query: pKi; subject: `Fc1cnccc1-c1cnn2cc(CN3CCCC3)cnc12`
> 7.00

I would be grateful if you could share the reported pKi for Cc1cc(-c2nn(C)c(Cl)c2CN2CCCCC(NCCC(C)C)C2)no1 (centres unmarked) .
6.00 to 6.30

I would be grateful if you could share the reported pKi for `Cc1cc(-c2nn(C)c(Cl)c2CN2CCCC[C@@H](NCCC(C)C)C2)no1` .
6.30 to 7.00

Consider the compound shown here: CC(C)CCNC1CCCCN(Cc2c(-c3cc(C4CC4)on3)nn(C)c2Cl)C1 (centres unmarked) What is its recorded pKi?
6.00 to 6.30

Consider the compound shown here: `CC(C)(C)CCN1CCCC2(CCN(S(=O)(=O)c3ccc(N4CCCC4=O)nc3)CC2)C1` What is its recorded pKi?
> 7.00

Look up pKi: `CCn1nc(-c2ccon2)c(CC(=O)Nc2ccc3c(c2)CCN(CCC(C)(C)C)C3)c1Cl`
> 7.00

Please report the recorded pKi for `O=S(=O)(N[C@H]1CCN(Cc2ccccc2)C1)c1cnc(N2CCOCC2)c(F)c1` .
> 7.00

Recorded pKi for `OC1CCN(Cc2cnc3c(-c4ccnc(C(F)(F)F)c4)cnn3c2)CC1` , please?
> 7.00

====

// cross-source set; read-out = Ki; system = Human σ1 receptor (Homo sapiens, UniProt Q99720)

Some entries whose results are on file:
Any idea what its Ki is? The molecule is `Cc1nn2cc(CN3CCC4(CC3)COC4)cnc2c1-c1ccnc(C(F)(F)F)c1`
100 to 500 nM

Reported Ki, molecule `O=C1OCCN1c1ccc(S(=O)(=O)N2CCC3(CCCN(CC4CCOCC4)C3)CC2)cn1` : ____
< 100 nM

Report Ki for `CCn1nc(-c2cccc(C(F)(F)F)n2)c(CN2CC3(CCN(CCC(C)(C)C)CC3)CC2=O)c1Cl` please.
< 100 nM

What measured Ki goes with `CCc1ncc(-c2cc(C)no2)c([C@H]2CCCN(CC(=O)N3CCOCC3)CC2)n1` ?
500 to 1000 nM

---
Which Ki is reported for this molecule? `CN(Cc1ccccc1)[C@H]1CC[C@H](NS(=O)(=O)c2ccc(N3CCOCC3)nc2)CC1`
> 1000 nM

====

Literature Ki values, system: Human σ1 receptor (Homo sapiens).

Examples from the recorded data:
Hi! What's the reported Ki for `COC1CCN(Cc2cnc3c(-c4ccc(C(F)(F)F)nc4)cnn3c2)CC1` on Human σ1 receptor (Homo sapiens)?
< 100 nM

Give recorded Ki with Human σ1 receptor (Homo sapiens) for the following compound: `CCCn1nc(-c2cc(C)on2)c(CN2CC3(CCN(CCC(C)(C)C)CC3)CC2=O)c1Cl`
100 to 500 nM

# returns recorded Ki (system: Human σ1 receptor (Homo sapiens)) for `CC(C)(C)CCN1CCC2(CC1)CCN(S(=O)(=O)c1ccc(N3CCC(F)(F)CC3)nc1)C2`
< 100 nM

Request: Ki, test system Human σ1 receptor (Homo sapiens), entry `FC(F)(F)c1cc(-c2cnn3cc(CN4CCC5(CCOC5)CC4)cnc23)ccn1`
< 100 nM

# query: Ki | item `Cc1cc(-c2nn(C)c(F)c2C(=O)N2CCC3(CCN(CCC(C)(C)C)CC3)CC2)no1` | system: Human σ1 receptor (Homo sapiens)
500 to 1000 nM

Attention now turns to another entry.
Item: `Cc1cc(-c2nn(C)c(Cl)c2C(=O)N2CCC3(CCN(Cc4ccc(F)c(F)c4)CC3)CC2)no1` Test system: Human σ1 receptor (Homo sapiens) Read-out: Ki Value: ?
500 to 1000 nM
